- Test system: linear pBR322 DNA
- METHOD SUMMARY: DNA cross-linking, electrophoretic assay (XL50)
- Type: biochemical
- MEASUREMENT CONDITIONS: concentration giving 50% cross-linked plasmid DNA; 2 hours, 37° C., pH 7.2
Classes based on EC50: low interval: < 800 nM; middle interval: ≥ 800 nM and < 2000 nM; high interval: ≥ 2000 nM

[
  {
    "COMPOUND": "COc1ccc2c(c1)N=C[C@H]1C(OCCCCCCCCCCCOC3CCN4C(=O)c5ccc(OC)cc5N=C[C@@H]34)CCN1C2=O (stereo partly shown)",
    "STUDY SYSTEM": "linear pBR322 DNA",
    "CAT": "low interval"
  },
  {
    "COMPOUND": "COc1ccc2c(c1)C(=O)N1CCC(OCCCCCCCCOC3CCN4C(=O)c5cc(OC)ccc5N=C[C@@H]34)[C@@H]1C=N2 (stereo partly shown) [Compound 16f]",
    "STUDY SYSTEM": "linear pBR322 DNA",
    "CAT": "middle interval"
  },
  {
    "COMPOUND": "COc1ccc2c(c1)N=C[C@H]1C(OCCCCCCCCOC3CCN4C(=O)c5ccc(OC)cc5N=C[C@@H]34)CCN1C2=O (stereo partly shown)",
    "STUDY SYSTEM": "linear pBR322 DNA",
    "CAT": "middle interval"
  },
  {
    "COMPOUND": "C=C1CN2C(=O)c3cc(OC)ccc3N=C[C@H]2C1OCCCCCCCCCOC1C(=C)CN2C(=O)c3cc(OC)ccc3N=C[C@@H]12 (stereo partly shown) [Compound 29b]",
    "STUDY SYSTEM": "linear pBR322 DNA",
    "CAT": "middle interval"
  },
  {
    "COMPOUND": "COc1ccc2c(c1)N=C[C@H]1C(OCCCCCCCOC3CCN4C(=O)c5ccc(OC)cc5N=C[C@@H]34)CCN1C2=O (stereo partly shown)",
    "STUDY SYSTEM": "linear pBR322 DNA",
    "CAT": "high interval"
  },
  {
    "COMPOUND": "COc1ccc2c(c1)N=C[C@H]1C(OCCCOC3CCN4C(=O)c5ccc(OC)cc5N=C[C@@H]34)CCN1C2=O (stereo partly shown)",
    "STUDY SYSTEM": "linear pBR322 DNA",
    "CAT": "high interval"
  },
  {
    "COMPOUND": "COc1ccc2c(c1)C(=O)N1CCC(OCCCCCCCCCOC3CCN4C(=O)c5cc(OC)ccc5N=C[C@@H]34)[C@@H]1C=N2 (stereo partly shown) [Compound 16g]",
    "STUDY SYSTEM": "linear pBR322 DNA",
    "CAT": "middle interval"
  },
  {
    "COMPOUND": "COc1ccc2c(c1)C(=O)N1CCC(OCCCCOC3CCN4C(=O)c5cc(OC)ccc5N=C[C@@H]34)[C@@H]1C=N2 (stereo partly shown) [Compound 16b]",
    "STUDY SYSTEM": "linear pBR322 DNA",
    "CAT": "middle interval"
  },
  {
    "COMPOUND": "COc1ccc2c(c1)C(=O)N1CCC(OCCCCCCCCCCOC3CCN4C(=O)c5cc(OC)ccc5N=C[C@@H]34)[C@@H]1C=N2 (stereo partly shown) [Compound 16h]",
    "STUDY SYSTEM": "linear pBR322 DNA",
    "CAT": "high interval"
  },
  {
    "COMPOUND": "COc1ccc2c(c1)C(=O)N1CCC(OCCCCCCOC3CCN4C(=O)c5cc(OC)ccc5N=C[C@@H]34)[C@@H]1C=N2 (stereo partly shown) [Compound 16d]",
    "STUDY SYSTEM": "linear pBR322 DNA",
    "CAT": "low interval"
  },
  {
    "COMPOUND": "C=C1CN2C(=O)c3cc(OC)ccc3N=C[C@H]2C1OCCCCCCCCCCOC1C(=C)CN2C(=O)c3cc(OC)ccc3N=C[C@@H]12 (stereo partly shown) [Compound 29c]",
    "STUDY SYSTEM": "linear pBR322 DNA",
    "CAT": "high interval"
  },
  {
    "COMPOUND": "COc1ccc2c(c1)C(=O)N1CCC(OCCCOC3CCN4C(=O)c5cc(OC)ccc5N=C[C@@H]34)[C@@H]1C=N2 (stereo partly shown) [Compound 16a]",
    "STUDY SYSTEM": "linear pBR322 DNA",
    "CAT": "low interval"
  },
  {
    "COMPOUND": "COc1ccc2c(c1)N=C[C@H]1C(OCCCCCCCCCCCCOC3CCN4C(=O)c5ccc(OC)cc5N=C[C@@H]34)CCN1C2=O (stereo partly shown)",
    "STUDY SYSTEM": "linear pBR322 DNA",
    "CAT": "high interval"
  },
  {
    "COMPOUND": "COc1ccc2c(c1)C(=O)N1CCC(OCCCCCOC3CCN4C(=O)c5cc(OC)ccc5N=C[C@@H]34)[C@@H]1C=N2 (stereo partly shown) [Compound 16c]",
    "STUDY SYSTEM": "linear pBR322 DNA",
    "CAT": "low interval"
  },
  {
    "COMPOUND": "COc1ccc2c(c1)N=C[C@H]1C(OCCCCCCCCCCOC3CCN4C(=O)c5ccc(OC)cc5N=C[C@@H]34)CCN1C2=O (stereo partly shown)",
    "STUDY SYSTEM": "linear pBR322 DNA",
    "CAT": "low interval"
  },
  {
    "COMPOUND": "COc1ccc2c(c1)N=C[C@H]1C(OCCCCCCCCCOC3CCN4C(=O)c5ccc(OC)cc5N=C[C@@H]34)CCN1C2=O (stereo partly shown)",
    "STUDY SYSTEM": "linear pBR322 DNA",
    "CAT": "middle interval"
  }
]
